Where these numbers come from: BigSolDB 2.1

details: in DMF, 278.15 K
Quantity: solubility (mole fraction)

[
  {
    "Line Notation": "CC(=O)Nc1ccc(OC(=O)c2ccccc2OC(C)=O)cc1",
    "Observed Measurement": 0.0175
  }
]

###

conditions: in ethanol, 303.15 K
Quantity: solubility (mole fraction)

[
  {
    "Line Notation": "CC(=O)Nc1ccc(OC(=O)c2ccccc2OC(C)=O)cc1",
    "Observed Measurement": 0.000947
  }
]

###

settings: in ethanol, 298.15 K

[
  {
    "Line Notation": "CC(=O)Nc1ccc(OC(=O)c2ccccc2OC(C)=O)cc1",
    "solubility (mole fraction)": 0.000755
  }
]

###

conditions: in water, 278.15 K
Quantity: solubility (mole fraction)

[
  {
    "Line Notation": "CC(=O)Nc1ccc(OC(=O)c2ccccc2OC(C)=O)cc1",
    "Observed Measurement": "5.59e-07"
  }
]

###

conditions: in NMP, 283.15 K
Quantity: solubility (mole fraction)

[
  {
    "Line Notation": "CC(=O)Nc1ccc(OC(=O)c2ccccc2OC(C)=O)cc1",
    "Quantity": "solubility (mole fraction)",
    "Observed Measurement": 0.0255
  }
]

###

conditions: in NMP, 303.15 K

[
  {
    "Line Notation": "CC(=O)Nc1ccc(OC(=O)c2ccccc2OC(C)=O)cc1",
    "solubility (mole fraction)": 0.041
  }
]

###

conditions: in ethanol, 318.15 K

[
  {
    "Line Notation": "CC(=O)Nc1ccc(OC(=O)c2ccccc2OC(C)=O)cc1",
    "solubility (mole fraction)": 0.00191
  }
]

###

settings: in DMF, 293.15 K
Quantity: solubility (mole fraction)

[
  {
    "Line Notation": "CC(=O)Nc1ccc(OC(=O)c2ccccc2OC(C)=O)cc1",
    "Observed Measurement": 0.0214
  }
]

###

conditions: in ethanol, 288.15 K
Quantity: solubility (mole fraction)

[
  {
    "Line Notation": "CC(=O)Nc1ccc(OC(=O)c2ccccc2OC(C)=O)cc1",
    "Quantity": "solubility (mole fraction)",
    "Observed Measurement": 0.000454
  }
]

###

conditions: in ethanol, 313.15 K

[
  {
    "Line Notation": "CC(=O)Nc1ccc(OC(=O)c2ccccc2OC(C)=O)cc1",
    "solubility (mole fraction)": 0.00151
  }
]

###

settings: in isopropanol, 283.15 K
Quantity: solubility (mole fraction)

[
  {
    "Line Notation": "CC(=O)Nc1ccc(OC(=O)c2ccccc2OC(C)=O)cc1",
    "Observed Measurement": 0.000191
  }
]

###

conditions: in DMF, 303.15 K

[
  {
    "Line Notation": "CC(=O)Nc1ccc(OC(=O)c2ccccc2OC(C)=O)cc1",
    "solubility (mole fraction)": 0.0244
  }
]

###

settings: in NMP, 278.15 K

[
  {
    "Line Notation": "CC(=O)Nc1ccc(OC(=O)c2ccccc2OC(C)=O)cc1",
    "solubility (mole fraction)": 0.0222
  }
]

###

details: in NMP, 313.15 K

[
  {
    "Line Notation": "CC(=O)Nc1ccc(OC(=O)c2ccccc2OC(C)=O)cc1",
    "solubility (mole fraction)": 0.0515
  }
]

###

conditions: in water, 308.15 K

[
  {
    "Line Notation": "CC(=O)Nc1ccc(OC(=O)c2ccccc2OC(C)=O)cc1",
    "solubility (mole fraction)": "4.82e-06"
  }
]
